System: KB
Assay Protocol: Cytotoxicity against human KB cells
Format: functional, cell-based
Assay Readout: IC50

Recorded IC50, per entry:
Compound String: CC(=O)O[C@@H]1C=C[C@@H](OC(=O)c2ccccc2)[C@H](O)[C@]1(O)COC(=O)c1ccccc1
IC50: > 50 µM
--
Compound String: CC(=O)O[C@H]1C=CC=C(COC(=O)c2ccccc2)[C@@H]1O
IC50: > 50 µM
--
Compound String: CC(=O)O[C@H]1C=CC=C[C@@]1(O)COC(=O)c1ccccc1
IC50: > 50 µM

// query Given the molecule `CC(=O)O[C@H]1C=C[C@@H](Cl)[C@@](O)(COC(=O)c2ccccc2)[C@@H]1O` , what is its reported IC50?
// result > 50 µM

// query Param item: `O=C(OC[C@]1(O)[C@H](Cl)C=C[C@@H](OC(=O)c2ccccc2)[C@@H]1O)c1ccccc1`
// result > 50 µM

// query Param item: `O=C(OC[C@]1(O)[C@@H](O)C=C[C@@H](O)[C@@H]1O)c1ccccc1`
// result > 50 µM

Value source: ChEMBL document CHEMBL4371096
